System: PBMC
Test: Cytotoxicity against human PBMC assessed as decrease in ATP level
Type: cell-based
resultType: Activity

{"structureSmiles": "COc1cc2c(Nc3cccc4cccnc34)c(C(N)=O)cnc2cc1-c1c(C)noc1C", "dataValue": "Non-toxic"}
{"structureSmiles": "COc1cc2c(cc1-c1c(C)noc1C)ncc1[nH]c(=O)n([C@H](C)c3ccccn3)c12", "dataValue": "Non-toxic"}
{"structureSmiles": "COc1cc2c(cc1-c1c(C)noc1C)ncc1[nH]c(=O)n(-c3ccccc3C(C)(C)C)c12", "dataValue": "Non-toxic"}
